Target: PTP-1B (Homo sapiens, UniProt P18031)
Construct: PTP-1B (purified, 1 mg/mL) as a 1:250 dilution
Sequence (P18031 1-321 limits assumed): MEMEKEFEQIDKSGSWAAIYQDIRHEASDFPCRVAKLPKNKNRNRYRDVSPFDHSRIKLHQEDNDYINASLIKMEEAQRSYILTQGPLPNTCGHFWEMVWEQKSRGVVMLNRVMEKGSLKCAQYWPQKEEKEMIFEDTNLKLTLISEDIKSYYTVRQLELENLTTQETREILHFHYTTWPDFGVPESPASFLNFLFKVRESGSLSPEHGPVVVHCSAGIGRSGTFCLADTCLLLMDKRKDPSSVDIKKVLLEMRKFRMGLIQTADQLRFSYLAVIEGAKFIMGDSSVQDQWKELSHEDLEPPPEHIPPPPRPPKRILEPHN
Assay: pNPP tyrosine phosphatase inhibition assay, PTP-1B
Type: biochemical
Settings: pNPP assay, PTP-1B; read-out: Activity Class (IC50 ranges)
In this section, each of the compounds is paired with its reported IC50.

In the examples that follow, each entry is paired with its recorded IC50.
COMPOUND	IC50
COc1ccccc1S(=O)(=O)N(Cc1cccc(-c2ccc(S(C)(=O)=O)cc2)c1)Cc1ccc(C(F)(F)P(=O)(O)O)c(Cl)c1	250 to 499 nM
COc1ccccc1S(=O)(=O)N(CCc1ccc(-c2cccc(C(=O)O)c2)cc1)Cc1ccc(C(F)(F)P(=O)(O)O)c(Cl)c1	250 to 499 nM
COc1ccccc1S(=O)(=O)N(Cc1ccc(-c2ccc3c(c2)C(=O)OC3)cc1)Cc1ccc(C(F)(F)P(=O)(O)O)c(Cl)c1	100 to 249 nM

Look at this compound and give its reported IC50. `CC(C)COC(=O)N(Cc1ccc(C(F)(F)P(=O)(O)O)cc1)Cc1ccc(C(F)(F)P(=O)(O)O)cc1`
2500 to 25000 nM

Entry `COc1ccccc1S(=O)(=O)N(Cc1ccc(-c2cccc(S(C)(=O)=O)c2)cc1)Cc1ccc(C(F)(F)P(=O)(O)O)c(Cl)c1` has what IC50?
100 to 249 nM

Could you tell me which IC50 is on file for `COc1ccccc1S(=O)(=O)N(Cc1ccc(C=CC(=O)O)cc1)Cc1ccc(C=CC(=O)O)cc1` ?
> 25000 nM

What value of IC50 has been reported for the following compound? COc1ccccc1S(=O)(=O)N(Cc1ccc(C(O)C(=O)O)cc1)Cc1ccc(S(C)(=O)=O)cc1 (stereo not shown)
> 25000 nM

----------
Target: PTP-1B (Homo sapiens)
Construct: PTP-1B (purified, 1 mg/mL) as a 1:250 dilution
Assay: pNPP tyrosine phosphatase inhibition assay, PTP-1B
Assay type: biochemical
Details: pNPP assay, PTP-1B; read-out: Activity Class (IC50 ranges)
Protocol: The compounds provided herein are evaluated for biological activity as inhibitors of PTP-1B using, for example, a pNPP assay can be used to screen compounds for tyrosine phosphatase inhibitory activity as described in the Examples. A 5× stock of pNPP (p-nitrophenol phosphate) substrate is prepared as 50 mM pNPP in assay buffer. […]
RECORDED_METRIC: IC50

Worked examples follow.
COMPOUND	REPORTED
N#Cc1cccc(-c2ccc(CN(Cc3ccc(C(F)(F)P(=O)(O)O)c(Cl)c3)S(=O)(=O)c3ccc(F)cc3Cl)cc2)c1	100 to 249 nM
COc1ccccc1S(=O)(=O)N(Cc1ccc(Cl)c(Cl)c1)Cc1ccc(C(F)(F)P(=O)(O)O)c(Br)c1	100 to 249 nM
COc1ccccc1S(=O)(=O)N(Cc1ccc(-c2ccc(S(C)(=O)=O)cc2)cc1)Cc1ccc(C(F)(F)P(=O)(O)O)c(Cl)c1	100 to 249 nM
COc1ccccc1S(=O)(=O)N(Cc1ccc(C(F)(F)P(=O)(O)O)c(Cl)c1)Cc1ccccc1-c1cccnc1	100 to 249 nM
O=P(O)(O)C(F)(F)c1ccc(CN(Cc2ccc(C(F)(F)P(=O)(O)O)c(Cl)c2)C2CCc3ccccc32)cc1Cl (stereo not shown)	250 to 499 nM

Recorded IC50 of `COc1ccccc1S(=O)(=O)N(Cc1ccc(-c2ccc(O)c(C(=O)O)c2)cc1)Cc1ccc(OCC(=O)O)c(Cl)c1` , please.
> 25000 nM

Which IC50 is listed for `O=P(O)(O)C(F)(F)c1ccc(CN(Cc2ccc(C(F)(F)P(=O)(O)O)cc2)c2ccc(-c3ccccc3)cc2)cc1` ?
2500 to 25000 nM

----------
biological target: PTP-1B (Homo sapiens, UniProt P18031); construct: PTP-1B (purified, 1 mg/mL) as a 1:250 dilution; assay: pNPP tyrosine phosphatase inhibition assay, PTP-1B; type: biochemical; conditions: pNPP assay, PTP-1B; read-out: Activity Class (IC50 ranges)
RECORDED_METRIC: IC50

Reference set, count: 3
MOLECULE	IC50
O=P(O)(O)C(F)(F)c1ccc(CN(Cc2ccc(Cl)c(Cl)c2)S(=O)(=O)c2ccccc2Cl)cc1Br	100 to 249 nM
COC(=O)c1ccc(CN(Cc2ccc(C(F)(F)P(=O)(O)O)c(Cl)c2)S(=O)(=O)c2ccccc2OC)cc1	250 to 499 nM
COc1ccccc1S(=O)(=O)N(Cc1ccc(-c2ccc(Cl)c(C(=O)NO)c2)cc1)Cc1ccc(C(F)(F)P(=O)(O)O)c(Cl)c1	< 99 nM

Form field - read-out: IC50; system: PTP-1B (Homo sapiens, UniProt P18031); submitted item: `O=P(O)(O)C(F)(F)c1ccc(CN(Cc2ccc(C(F)(F)P(=O)(O)O)cc2)S(=O)(=O)c2ccc(Cl)c(Cl)c2)cc1`
250 to 499 nM

Record `O=C(NS(=O)(=O)C(F)(F)F)c1ccc(CN(Cc2ccc(Cl)c(Cl)c2)S(=O)(=O)c2ccccc2Cl)cc1Br` : what is its IC50 with PTP-1B (Homo sapiens, UniProt P18031)?
> 25000 nM

Can you look up IC50 on PTP-1B (Homo sapiens, UniProt P18031) for `COc1ccccc1S(=O)(=O)N(Cc1ccc(N(C)C(=O)C(=O)O)cc1)Cc1ccc(N(C)C(=O)C(=O)O)cc1` ?
> 25000 nM

State its IC50 on PTP-1B (Homo sapiens, UniProt P18031): `COc1ccccc1S(=O)(=O)N(Cc1ccc(-c2cccc(C(N)=O)c2)cc1)Cc1ccc(C(F)(F)P(=O)(O)O)c(Cl)c1`
100 to 249 nM

# value lookup — system PTP-1B (Homo sapiens, UniProt P18031), readout IC50, item COc1ccccc1S(=O)(=O)N(Cc1ccc(C#N)cc1)Cc1ccc(C(O)C(O)C(=O)O)c(Br)c1 (centres unmarked)
> 25000 nM

Identify the measured IC50 of `COc1ccccc1S(=O)(=O)N(Cc1ccc(C(F)(F)P(=O)(O)O)c(Cl)c1)Cc1ccccc1OC(C)C` for PTP-1B (Homo sapiens, UniProt P18031).
250 to 499 nM

Requested read-out IC50, target or system PTP-1B (Homo sapiens, UniProt P18031), entry `N#Cc1ccc(CN(Cc2ccc(C(F)(F)P(=O)(O)O)c(Br)c2)S(=O)(=O)c2ccccc2Cl)cc1`
100 to 249 nM

----------
// reported pIC50 for each item listed
molecular target: PTP-1B (Homo sapiens, UniProt P18031); construct: PTP-1B (purified, 1 mg/mL) as a 1:250 dilution; assay: pNPP tyrosine phosphatase inhibition assay, PTP-1B; assay type: biochemical; details: pNPP assay, PTP-1B; read-out: Activity Class (IC50 ranges)
pIC50: −log10 of the molar value.

COMPOUND	pIC50
CCOC(=O)c1cc(-c2ccc(CN(Cc3ccc(C(F)(F)P(=O)(O)O)c(Cl)c3)S(=O)(=O)c3ccccc3OC)cc2)ccc1Cl [Compound 175]	6.30 to 6.60

Return reported pIC50; argument: O=P(O)(O)C(F)(F)c1ccc(CN(Cc2ccc(C(F)(F)P(=O)(O)O)cc2)S(=O)(=O)c2ccccc2Br)cc1 [Compound 84]
6.30 to 6.60

# query: pIC50 of entry COc1cccc(-c2ccccc2CN(Cc2ccc(C(F)(F)P(=O)(O)O)c(Cl)c2)S(=O)(=O)c2ccccc2OC)c1 [Compound 183]
> 7.00

Looking for the measured pIC50 of O=P(O)(O)C(F)(F)c1ccc(CN(Cc2ccc(C(F)(F)P(=O)(O)O)cc2)S(=O)(=O)C=Cc2ccccc2)cc1 [Compound 75] , can you help?
6.30 to 6.60

Given the compound COc1ccccc1S(=O)(=O)N(Cc1ccc(C#N)cc1)Cc1ccc(C(F)(F)P(=O)(O)O)c(Br)c1 [Compound 105] , what is its reported pIC50?
6.60 to 7.00

Sample O=P(O)(O)C(F)(F)c1ccc(CN(Cc2ccc(C(F)(F)P(=O)(O)O)cc2)S(=O)(=O)c2cccc(-c3ccccc3)c2)cc1 [Compound 74] — what was its pIC50?
6.30 to 6.60

Entry under review: COc1ccccc1S(=O)(=O)N(Cc1ccc(C#N)cc1)Cc1ccc(NS(=O)(=O)C(F)(F)F)c(C(=O)O)c1 [Compound 139] . Reported pIC50?
< 4.60

Quick check: pIC50 of COc1ccccc1S(=O)(=O)N(Cc1ccccc1)Cc1ccc(C(F)(F)P(=O)(O)O)c(Cl)c1 [Compound 170] ?
6.30 to 6.60
